# Test system: XIP peptide (Xip251-270)
# procedure-text: small-molecule binders of XIP peptide, primary screen, biochemical, small-molecule microarray, fluorescence 635/667 nm, 0.5 µg/mL protein (AID 1183)
# test-context: small-molecule microarray binding, fluorescence 635 nm; higher = more signal
Measured composite z-score, listed per entry.
Form rule: numeric answer, no unit written next to it.

Would you please look over these solved cases?
molecule: CCN1C(C)=C(C(=O)OC)[C@@H](c2ccccc2)N2C(=O)[C@](O)(C(=O)OC)CC(C(C)=O)=C12
composite z-score: -0.218
--
molecule: CO[C@H]1COC(=O)CCC[C@H](C)[C@H](OC)COC(=O)CC=C[C@@H]1C
composite z-score: 0.0648
--
molecule: CC(CCC(=O)OC[C@H]1O[C@H](C#Cc2ccccc2)C=C[C@@H]1Oc1ccc(C)cc1)=NOC(C)CN1CCCCc2nc(C)c(C)cc21 (some centres undefined)
composite z-score: 0.0787

Req: Reported composite z-score, molecule COC(=O)[C@H](C)NC(=O)CCC1CC(OC(=O)NCCc2ccc(F)cc2)CC2(CCCC(COC(=O)NCCOc3ccccc3)O2)O1 (some centres undefined) : ____
Resp: 0.536

====

# experimental-target: Carbonic anhydrase 2 (Homo sapiens)
# procedure-text: CAII small-molecule binders, profiling panel, biochemical, small-molecule microarray, Alexa647-labelled CAII (AID 1122)
# test-context: CAII-A647 binding fluorescence, higher = more signal
value-kind: composite z-score

Would you please look over these solved cases?
molecule: CC(C)=CCCC(C)=CCON=C1C[C@@H](O)[C@@H](O)[C@@H]2[C@@H]3C(=O)N(c4cccc(Oc5ccccc5)c4)C(=O)[C@@H]3CC[C@H]12
composite z-score: 0.376

molecule: CO[C@@H](C1CCCCC1)[C@@H](C)[C@H](OCc1cccc(Br)c1)[C@@H](C)CO
composite z-score: -0.17

molecule: CCCNC(=O)OC[C@H]1O[C@H](CCON=C2c3cc(OC)ccc3O[C@H](c3cccc(OC)c3)[C@H]2O)C=C[C@@H]1Oc1ccc(OC)cc1
composite z-score: 0.137

Req: GET /values?readout=composite z-score&system=Carbonic anhydrase 2 (Homo sapiens)&item= CO[C@@H]1COC(=O)[C@H](CCSC)NC(=O)CC=C[C@@H](C)COC(=O)[C@@H]2CCCN2C(=O)CC=C[C@H]1C
Resp: -0.291

Req: And CCOC(=O)NN=C1C[C@@H](O)[C@@H](O)[C@@H]2[C@@H]3C(=O)N(c4ccc(F)cc4F)C(=O)[C@@H]3CC[C@H]12 ?
Resp: -0.0212

Req: And CCOC(=O)[C@H](Cc1ccccc1)NC(=O)CCC1CC(OC(=O)NCc2cccc3ccccc23)CC2(CCCC(COC(=O)NCCc3ccccc3OC)O2)O1 (stereo not given in full) ?
Resp: 0.224

Req: And CCOC(=O)[C@H](Cc1ccccc1)NC(=O)CCC1CC(OC(=O)NCCc2ccc(F)cc2)CC2(CCCC(COC(=O)NCCOc3ccccc3)O2)O1 (stereo not given in full) ?
Resp: 0.0403

Req: And O=C1C=C[C@@H](O)[C@@H]2[C@@H]3C(=O)N(Cc4ccc5c(c4)OCO5)C(=O)[C@@H]3CC[C@@H]12 ?
Resp: -0.137

Req: And COc1ccc2c(c1)O[C@@H](c1cccc(C(F)(F)F)c1)[C@H](O)C2=O ?
Resp: 0.0122

Req: And C[C@@H](c1ccccc1)N1C(=O)[C@H]2[C@H]3[C@H](O)[C@H](O)CC(=NNC(=O)OCc4ccccc4)[C@@H]3CC[C@H]2C1=O ?
Resp: -0.191

====

# Tested on: Sonic hedgehog protein (Shh)
# procedure-text: small-molecule binders of Shh protein, primary screen, biochemical, small-molecule microarray, 635/667 nm fluorescence (AID 1151);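 note: Shh protein binding to compounds spotted on small-molecule microarray slides; score combines spot fluorescence intensity with signal-to-noise across triplicate slides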
# test-context: small-molecule microarray binding, 635 nm fluorescence; higher = more signal
Measured composite z-score, listed per entry.
Form rule: numeric answer, no unit written next to it.

structure-smiles-string: COC(=O)[C@@H]1CC[C@H](C)[C@@H](c2ccc(Br)cc2)N1C[C@H](O)CN=[N+]=[N-]
quantitative-result: 0.26

Req: GET /values?readout=composite z-score&system=Sonic hedgehog protein (Shh)&item= COC(=O)[C@@H]1CC[C@H](C)[C@@H](c2ccc(Br)cc2)N1C(=O)C(F)(F)F
Resp: -0.14

Req: And CC(C)[C@@H](OCc1ccccc1)[C@H](C)C=NOC[C@@H](O)[C@H]1O[C@@H]2OC(C)(C)O[C@@H]2[C@H]1O ?
Resp: 0.587

Req: And CC(CCN1CCCCc2nc(C)c(C)cc21)=NO[C@@H](C)c1cc(-c2c(C)cc(C)cc2C)no1 ?
Resp: -0.235

====

# Test system: XIP peptide (Xip251-270)
# procedure-text: small-molecule binders of XIP peptide, primary screen, biochemical, small-molecule microarray, fluorescence 635/667 nm, 0.5 µg/mL protein (AID 1183)
# test-context: small-molecule microarray binding, fluorescence 635 nm; higher = more signal
value-kind: composite z-score

compound: CC(C)[C@@H](OCc1ccccc1)[C@H](C)C=NO[C@@H](C)c1cn([C@H](CO)Cc2ccccc2)nn1
value-kind: composite z-score
result: -0.0098
//
compound: COC(=O)[C@H](C)NC(=O)CCC1CC(OC(=O)NCc2cccc3ccccc23)CC2(CCCC(COC(=O)NCc3cccc(C(F)(F)F)c3)O2)O1 (some centres not stated)
value-kind: composite z-score
result: 0.128
//
compound: COc1ccc(O[C@H]2C=C[C@@H](c3ccccc3)O[C@@H]2CO)cc1
value-kind: composite z-score
result: 0.546

Req: Reported composite z-score, compound O=C1[C@H]2[C@H]3[C@H](O)[C@H](O)CC(=NOCc4ccccc4)[C@H]3CC[C@H]2C(=O)N1C1CCCCC1 : ____
Resp: 0.714

Req: And C=CC[C@@H]1C=C[C@H](ON=C[C@@H](NS(=O)(=O)c2ccc(C)cc2)[C@H](C)C=CCC(=O)OC)[C@@H](CO)O1 ?
Resp: 0.463

Req: And COc1ccc(COC(=O)NN=C2C[C@@H](O)[C@@H](O)[C@@H]3[C@@H]4C(=O)N([C@@H](C)c5ccccc5)C(=O)[C@@H]4CC[C@@H]23)cc1 ?
Resp: 0.0452

Req: And COc1cccc([C@H]2Oc3ccc(OC)cc3C(=NOCC[C@@H]3C=C[C@H](OC(C)=O)[C@@H](COC(C)=O)O3)[C@@H]2O)c1 ?
Resp: 0.206

====

# experimental-target: Alpha-bungarotoxin (Bungarus multicinctus)
# procedure-text: alpha-bungarotoxin binders on microarray, profiling panel, artefact control for SMM control protein annotation, biochemical, small-molecule microarray, Alexa647 label, 635/667 nm fluorescence (AID 1117)
# test-context: alpha-BTX-A647 binding fluorescence, higher = more signal
value-kind: composite z-score
Form rule: numeric answer, no unit written next to it.

Would you please look over these solved cases?
molecule: CC(C)=CCCC(C)=CCON=C1C[C@@H](O)[C@@H](O)[C@@H]2[C@@H]3C(=O)N(Cc4ccc5c(c4)OCO5)C(=O)[C@@H]3CC[C@H]12
quantitative-result: 0.168

molecule: CC=CC1=C(CO)[C@H](O)[C@H]2O[C@H]2[C@@H]1O
quantitative-result: 0.495

Req: Reported composite z-score, molecule C[C@H]1CC[C@H]2C(=O)N[C@H](Cc3ccccc3)C(=O)N2[C@@H]1c1ccccc1 : ____
Resp: -0.009

Req: And CO[C@@H]1[C@H](O)CO[C@H]1C=Cc1ccccc1 ?
Resp: 0.241

Req: And COC(=O)CC=C[C@@H](C)[C@@H](C=NOC(C)CN1CCCCc2nc(C)c(C)cc21)OC (some centres undefined) ?
Resp: 0.143

Req: And O=C(NCCC[N+]1=CC=NC1c1ccccc1)N1CCCc2nc(-c3ccc(Br)cc3)ccc21 (centres undefined) ?
Resp: -0.436

====

# procedure-text: small-molecule microarray binders of probe aNog, primary screen, biochemical, biotinylated probe, 635/667 nm fluorescence (AID 1115);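 note: probe is biotinylated aNog protein used at 0.15 µg/mL for 1 h at 4 C; z-score combines 667 nm fluorescence of each spot with its signal to noise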
# test-context: higher = more signal
composite z-score vs 0.08: at or above is 1.0, below is 0.0.

Solved cases (5 shown):
compound: CC(CCN1CCCc2nc(C)c(C)cc21)=NO[C@H](C)c1cn([C@@H]2COC[C@H]2O)nn1
classification: 0.0
--
compound: C=CC[C@@H]1C=C[C@H](ON=C(C)CCN2CCCCc3nc(C)c(C)cc32)[C@@H](CO)O1
classification: 0.0
--
compound: C#CCCCON=C1C[C@@H](O)[C@@H](O)[C@@H]2[C@@H]3C(=O)N(C[C@@H]4CCCO4)C(=O)[C@@H]3CC[C@H]12
classification: 0.0
--
compound: CCOC(=O)[C@H](Cc1ccccc1)NC(=O)CCC1CC(OC(=O)NCc2cccc3ccccc23)CC2(CCCC(COC(=O)NCCOc3ccccc3)O2)O1 (some centres not stated)
classification: 0.0
--
compound: CC(C)(C)N1C(=O)[C@H]2[C@H]3[C@H](O)[C@H](O)CC(=NOC[C@@H](O)COCc4ccco4)[C@H]3CC[C@H]2C1=O
classification: 1.0

Turning now to a further record.
Req: Hi, just wondering whether C[C@@H]1CC[C@H]2C(=O)OC(Cc3ccccc3)CN2[C@H]1c1ccc(Br)cc1 (some centres not stated) shows composite z-score of 0.08 or higher.
Resp: 1.0

Data credit: PubChem BioAssay
